The origin of these recorded values is patent EP1452542A2.

TARGET SYSTEM: T1, human IgE; monoclonal antibody SE44 (human, UniProt P01854-1 1-428)
T1 construct: domain: human e constant region; also called IgE (SE44); human monoclonal IgE (SE44)
ASSAY INFO: BIAcore SPR, antibody captured via anti-human IgG, IgE SE44 3.125-25 nM in flow, 25°C
OBSERVED PROPERTY: kon

INSERT INTO assay_data (binder, value_observed) VALUES
  ('reshaped human C21 antibody C21-H1/L1 (antibody, V domains shown) VH: QVQLVQSGAEVKKPGASVKVSCKASGYTFSMYWLEWVKQRPGHGLEWVGEISPGTFTTNYNEKFKAKATFTADTSTNTAYMELSSLTSEDTAVYYCARFSHFSGSNYDYFDYWGQGTLVTVSS VL: DILLTQSPGTLSLSPGERATLSCRASQSIGTNIHWYQQKPGQAPRLLIKYASESISGIPSRFSGSGSGTDFTLTISRLEPEDFAMYYCQQSDSWPTTFGQGTKVEIK', '260000 M⁻¹ s⁻¹'),
  ('reshaped human C21 antibody C21-H1/L3 (antibody, V domains shown, C21-L3 is C21-L1 with Glu instead of Asp at position 1 and Val instead of Leu at position 3) VH: QVQLVQSGAEVKKPGASVKVSCKASGYTFSMYWLEWVKQRPGHGLEWVGEISPGTFTTNYNEKFKAKATFTADTSTNTAYMELSSLTSEDTAVYYCARFSHFSGSNYDYFDYWGQGTLVTVSS VL: EIVLTQSPGTLSLSPGERATLSCRASQSIGTNIHWYQQKPGQAPRLLIKYASESISGIPSRFSGSGSGTDFTLTISRLEPEDFAMYYCQQSDSWPTTFGQGTKVEIK', '290000 M⁻¹ s⁻¹'),
  ('reshaped human C21 antibody C21-H1/L2 (antibody, V domains shown, C21-L2 is C21-L1 with aspartic acid instead of serine at position 60) VH: QVQLVQSGAEVKKPGASVKVSCKASGYTFSMYWLEWVKQRPGHGLEWVGEISPGTFTTNYNEKFKAKATFTADTSTNTAYMELSSLTSEDTAVYYCARFSHFSGSNYDYFDYWGQGTLVTVSS VL: DILLTQSPGTLSLSPGERATLSCRASQSIGTNIHWYQQKPGQAPRLLIKYASESISGIPDRFSGSGSGTDFTLTISRLEPEDFAMYYCQQSDSWPTTFGQGTKVEIK', '280000 M⁻¹ s⁻¹'),
  ('reshaped human C21 antibody C21-H3/L1 (antibody, V domains shown) VH: QVQLVQSGAEVKKPGASVKVSCKASGYTFSMYWLEWVRQAPGHGLEWVGEISPGTFTTNYNEKFKARATFTADTSTNTAYMELSSLRSEDTAVYYCARFSHFSGSNYDYFDYWGQGTLVTVSS VL: DILLTQSPGTLSLSPGERATLSCRASQSIGTNIHWYQQKPGQAPRLLIKYASESISGIPSRFSGSGSGTDFTLTISRLEPEDFAMYYCQQSDSWPTTFGQGTKVEIK', '250000 M⁻¹ s⁻¹'),
  ('reshaped human C21 antibody C21-Hay3/L1 (antibody, V domains shown) VH: QVQLVQSGAEVKKPGASVKVSCKASGYTFSMYWLEWVRQAPGQRLEWMGEISPGTFTTNYNEKFKARATFTADTSASTAYMELSSLRSEDTAVYYCARFSHFSGSNYDYFDYWGQGTLVTVSS VL: DILLTQSPGTLSLSPGERATLSCRASQSIGTNIHWYQQKPGQAPRLLIKYASESISGIPSRFSGSGSGTDFTLTISRLEPEDFAMYYCQQSDSWPTTFGQGTKVEIK', '250000 M⁻¹ s⁻¹');
